Test system: aminopeptidase
experimental_details: Effect of chemical materials affecting enzyme activity of aminopeptidase
Format: biochemical, Bacillus licheniformis
condition_summary: aminopeptidase treated for 2 hours with 5 mM chemical
Listing: relative activity (%) of selected molecules
Record the value in %, omitting the unit from your answer.

Check out these entries, answers already filled in.
O=C(O)CN(CCN(CC(=O)O)CC(=O)O)CC(=O)O [EDTA, ethylenediaminetetraacetic acid] | 83.4
O[C@H](CS)[C@H](O)CS (racemic) [dithiotreitol, dithiothreitol] | 0
O=C(O)CI [iodoacetic acid] | 104.2

# context switch: different molecule, same relative activity (%)
Query: Please list relative activity (%) recorded for the molecule c1cnc2c(c1)ccc1cccnc12 [ortho-penanthroline, ortho-phenanthroline]
Reply: 86.8

###

Listing: relative activity (%) of selected compounds
System: aminopeptidase
experimental_details: Effect of chemical materials affecting enzyme activity of aminopeptidase
Type: biochemical, Bacillus licheniformis
condition_summary: aminopeptidase treated for 2 hours with 1 mM chemical
Record the value in %, omitting the unit from your answer.

c1cnc2c(c1)ccc1cccnc12 | 91.9
O=C(O)CN(CCN(CC(=O)O)CC(=O)O)CC(=O)O | 93.8
O=C(O)CI | 98.1

# context switch: different compound, same relative activity (%)
Query: Please list relative activity (%) recorded for the compound O[C@H](CS)[C@H](O)CS (racemic)
Reply: 0.8

###

Tested on: aminopeptidase
experimental_details: Effect of chemical materials affecting enzyme activity of aminopeptidase
Assay type: biochemical, Bacillus licheniformis
metric_name: effect on aminopeptidase activity (in words)

O[C@H](CS)[C@H](O)CS (racemic) | inhibited
c1cnc2c(c1)ccc1cccnc12 | inhibited
O=C(O)CI | inhibited

###

Listing: relative activity (%) of selected compounds
Test system: aminopeptidase
experimental_details: Effect of chemical materials affecting enzyme activity of aminopeptidase
Type: biochemical, Bacillus licheniformis
condition_summary: aminopeptidase treated for 2 hours with 20 mM chemical
Record the value in %, omitting the unit from your answer.

Check out these entries, answers already filled in.
O=C(O)CI | 0
O[C@H](CS)[C@H](O)CS (racemic) | 0
O=C(O)CN(CCN(CC(=O)O)CC(=O)O)CC(=O)O | 66.3

Query: Please list relative activity (%) recorded for the compound c1cnc2c(c1)ccc1cccnc12
Reply: 4.7
